test system: SK-MEL-2; experiment: NCI tumour cell line growth inhibition, 48 h
Active and inactive are the calls of the source. Rule as the data show it: active = GI50 up to about 1.1 µM and inactive = higher.
GI50 overview
Measure: GI50

compound="CC1=NN(c2nc(N)nc(C(C)Sc3cc(Cl)c(C)cc3S(N)(=O)=O)n2)C(C)(C)C1 (centres undefined)" value_observed="> 10 µM (inactive)"
compound=COC(=O)CC[N+]1=CCC(c2ccccc2)(c2ccccc2)O1 value_observed="> 100 µM (inactive)"
compound=Cc1ccc(C(=O)O)c(/C=C2\Cc3ccc(C)cc3C2=O)c1 value_observed="32 µM (inactive)"
compound="C/C(=C\\CBr)CCC(Br)C(C)(C)Br (centres undefined)" value_observed="> 100 µM (inactive)"
compound=O=[N+]([O-])c1ccc(N/N=C/CC(O)(C(F)(F)F)C(F)(F)F)c([N+](=O)[O-])c1 value_observed="2.21 µM (inactive)"
compound="CCOC(=O)NC(NC(C)CC)(C(F)(F)F)C(F)(F)F (centres undefined)" value_observed="> 100 µM (inactive)"
compound=CN(C)c1n2c3cc([N+](=O)[O-])ccc3[n+]3c(N(C)C)n4ccccc4c3c2c2cccc[n+]12.[O-][Cl+3]([O-])([O-])[O-].[O-][Cl+3]([O-])([O-])[O-] value_observed="> 100 µM (inactive)"
compound=CN(C)CCSc1nccc(-c2cc3ccccc3s2)n1 value_observed="17.3 µM (inactive)"
compound="Cc1ccc(OCC2OC(n3cnc4nc(Nc5ccc(Cl)c(Cl)c5)nc(Cl)c43)CC2Oc2ccc(C)cc2)cc1 (centres undefined)" value_observed="> 100 µM (inactive)"
